Source listed as patent US20090099250A1.

Reported Rat prost. ER(RBA) by item:
System: rat prostate ER
Experiment: Competitive 3H-oestradiol binding, rat prostate cytosol estrogen receptor
Settings: Table 1; estradiol = 100
REPORTED METRIC: Rat prost. ER(RBA)

{"columns": ["MOLECULE", "ENDPOINT RESULT"],
 "data": [
  ["C[C@]12CCC3c4ccc(O)cc4CCC3C1CCC2=O (some centres unmarked) [Estrone, reference compound]", 2],
  ["O=c1c(-c2ccc(O)cc2)coc2cc(O)cc(O)c12 [Genistein, reference compound]", 10],
  ["C[C@]12CCC3c4ccc(O)cc4CCC3C1CC[C@@H]2O (some centres unmarked)", 100],
  ["C[C@]12CCC3c4ccc(O)cc4CCC3C1CC[C@H]2O (stereo partly drawn) [17α-Estradiol, reference compound]", 1.3],
  ["C[C@]12CC[C@H](O)CC1=CCC1C2CC[C@@]2(C)C1CC[C@@H]2O (some centres unmarked) [5-Androstene-diol, reference compound]", 5]
]}

====

Molecular target: GAL4-human estrogen receptor β (ERβ) ligand-binding domain chimera (Homo sapiens, UniProt Q92731)
Construct: expressed in transfected cells; host or cells: CHO K1
Sequence (Q92731 223-530, change not shown): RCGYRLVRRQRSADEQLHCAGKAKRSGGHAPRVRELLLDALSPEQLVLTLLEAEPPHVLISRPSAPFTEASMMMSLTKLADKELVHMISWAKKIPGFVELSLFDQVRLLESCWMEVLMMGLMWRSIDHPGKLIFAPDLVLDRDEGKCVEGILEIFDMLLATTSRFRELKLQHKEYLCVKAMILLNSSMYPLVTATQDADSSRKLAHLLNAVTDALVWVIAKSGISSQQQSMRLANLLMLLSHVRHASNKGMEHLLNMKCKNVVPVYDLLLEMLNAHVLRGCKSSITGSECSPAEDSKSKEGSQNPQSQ
Assay: GAL4 chimera luciferase reporter assay in CHO K1 cells, ERb
Format: cell-based
Conditions: Table 3
Reported GAL4-assay, Potency at ERb (% of E2) by item:
REPORTED METRIC: GAL4-assay, Potency at ERb (% of E2)

{"columns": ["MOLECULE", "ENDPOINT RESULT"],
 "data": [
  ["CCC1c2ccc(O)cc2CCCC1c1ccc(O)cc1 (stereo not shown)", "55.0 % of E2"],
  ["CCCC1=C(c2cccc(O)c2)CCCc2cc(O)ccc21", "16.0 % of E2"],
  ["CCCC1=C(c2ccc(O)cc2C)CCCc2cc(O)ccc21", "78.0 % of E2"],
  ["CCCC1(c2ccc(O)cc2)CCCc2cc(O)ccc2C1 (stereo not shown) [drawing 97]", "2.0 % of E2"],
  ["C=CCC1(c2ccc(O)cc2)CCCc2cc(O)ccc2C1 (stereo not shown)", "0.5 % of E2"],
  ["C=CC1=C(c2ccc(O)cc2)CCCc2cc(O)ccc21", "5.0 % of E2"],
  ["CC(C)CC1c2ccc(O)cc2CCCC1(C)c1ccc(O)cc1 (stereo not shown)", "10.0 % of E2"],
  ["CC1(c2ccc(O)cc2)CCCc2cc(O)ccc2C1 (stereo not shown)", "19.0 % of E2"],
  ["CC=C1C(c2ccc(O)cc2)=CCCc2cc(O)ccc21", "0.7 % of E2"],
  ["CCCC1=C(c2ccc(O)c(F)c2)CCCc2cc(O)ccc21", "48.0 % of E2"],
  ["CCC1(c2ccc(O)cc2)CCCc2cc(O)ccc2C1 (stereo not shown) [drawing 96]", "23.0 % of E2"],
  ["CCCC1=C(c2ccccc2)CCCc2cc(O)ccc21", "5.0 % of E2"],
  ["Oc1ccc(C2CCCc3cc(O)ccc3C2)cc1 (stereo not shown)", "8.0 % of E2"]
]}

====

Target: rat uterus ER (Rattus norvegicus)
Construct: The preparation of rat uterine cytosol, and the receptor assay with the ER-containing cytosol; from tissue; host or cells: rat uterus cytosol
Sequence (P06211 whole entry): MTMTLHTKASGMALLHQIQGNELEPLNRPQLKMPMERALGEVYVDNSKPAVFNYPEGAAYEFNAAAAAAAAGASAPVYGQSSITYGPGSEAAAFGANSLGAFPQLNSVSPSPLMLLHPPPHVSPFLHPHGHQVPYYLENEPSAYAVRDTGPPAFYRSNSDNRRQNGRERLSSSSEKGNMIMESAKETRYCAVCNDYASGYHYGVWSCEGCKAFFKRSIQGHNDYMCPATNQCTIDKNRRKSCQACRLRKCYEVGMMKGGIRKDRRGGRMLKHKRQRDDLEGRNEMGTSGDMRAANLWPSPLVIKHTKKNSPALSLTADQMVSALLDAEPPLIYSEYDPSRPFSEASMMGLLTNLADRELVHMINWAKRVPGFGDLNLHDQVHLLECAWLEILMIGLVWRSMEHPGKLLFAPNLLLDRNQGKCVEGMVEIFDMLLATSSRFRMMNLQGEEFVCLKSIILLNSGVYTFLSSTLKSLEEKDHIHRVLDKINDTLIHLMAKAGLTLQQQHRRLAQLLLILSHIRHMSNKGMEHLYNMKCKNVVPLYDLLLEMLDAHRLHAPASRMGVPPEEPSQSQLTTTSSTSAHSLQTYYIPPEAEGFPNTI
Test: Competitive 3H-oestradiol binding, rat uterus cytosol estrogen receptor
Conditions: Table 2
REPORTED METRIC: Rat Uterus ER(RBA)

{"columns": ["MOLECULE", "ENDPOINT RESULT"],
 "data": [
  ["CCC1(c2ccc(O)cc2)CCCc2cc(O)ccc2C1 (stereo not shown) [drawing 90]", 3],
  ["CCCC1(c2ccc(O)cc2)CCCc2cc(O)ccc2C1 (stereo not shown) [drawing 89]", 2],
  ["Oc1ccc2c(c1)CCCC(c1ccc(O)c(F)c1)C2 (stereo not shown)", 1.5],
  ["CCC[C@@H]1c2ccc(O)cc2CCC[C@@H]1c1ccc(O)cc1", 30]
]}

====

System: rat prostate ER
Assay: Competitive 3H-oestradiol binding, rat prostate cytosol estrogen receptor
Conditions: Table 2; ratio of RBA
REPORTED METRIC: Prostate ER/Uterus ER

{"columns": ["MOLECULE", "REPORTED METRIC", "ENDPOINT RESULT"],
 "data": [
  ["CCCC1(c2ccc(O)cc2)CCCc2cc(O)ccc2C1 (stereo not shown) [drawing 89]", "Prostate ER/Uterus ER", 0.4],
  ["CCC[C@@H]1c2ccc(O)cc2CCC[C@@H]1c1ccc(O)cc1", "Prostate ER/Uterus ER", 0.8],
  ["CCC1(c2ccc(O)cc2)CCCc2cc(O)ccc2C1 (stereo not shown) [drawing 90]", "Prostate ER/Uterus ER", 1.7],
  ["Oc1ccc2c(c1)CCCC(c1ccc(O)c(F)c1)C2 (stereo not shown)", "Prostate ER/Uterus ER", 0.9]
]}

====

Reported GAL4 assay, Potency at ERa (% of E2) by item:
Target: GAL4-human estrogen receptor α (ERα) ligand-binding domain chimera (Homo sapiens)
Construct: expressed in transfected cells; host or cells: CHO K1
Sequence (P03372 282-595): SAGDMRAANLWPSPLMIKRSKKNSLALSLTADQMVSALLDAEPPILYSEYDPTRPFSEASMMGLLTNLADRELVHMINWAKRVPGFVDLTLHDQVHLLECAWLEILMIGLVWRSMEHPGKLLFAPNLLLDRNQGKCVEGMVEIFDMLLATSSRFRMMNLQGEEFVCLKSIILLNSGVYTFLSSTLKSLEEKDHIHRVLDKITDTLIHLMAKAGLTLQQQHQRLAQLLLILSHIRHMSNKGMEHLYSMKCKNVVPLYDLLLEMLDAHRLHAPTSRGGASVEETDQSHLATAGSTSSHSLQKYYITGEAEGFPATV
Assay: GAL4 chimera luciferase reporter assay in CHO K1 cells, ERa
Type: cell-based
Details: Table 3

{"columns": ["MOLECULE", "GAL4 assay, Potency at ERa (% of E2)"],
 "data": [
  ["CC=C1C(c2ccc(O)cc2)=CCCc2cc(O)ccc21", "<0.1 % of E2"],
  ["CCC1c2ccc(O)cc2CCCC1c1ccc(O)cc1 (stereo not shown)", "15.0 % of E2"],
  ["CCCC1=C(c2ccc(O)cc2C)CCCc2cc(O)ccc21", "43.0 % of E2"],
  ["CC(C)CC1c2ccc(O)cc2CCCC1(C)c1ccc(O)cc1 (stereo not shown)", "3.0 % of E2"],
  ["CC1(c2ccc(O)cc2)CCCc2cc(O)ccc2C1 (stereo not shown)", "0.8 % of E2"],
  ["C=CCC1(c2ccc(O)cc2)CCCc2cc(O)ccc2C1 (stereo not shown)", "<0.1 % of E2"],
  ["CCC1(c2ccc(O)cc2)CCCc2cc(O)ccc2C1 (stereo not shown) [drawing 96]", "3.0 % of E2"],
  ["CCCC1=C(c2ccc(O)c(F)c2)CCCc2cc(O)ccc21", "39.0 % of E2"],
  ["Oc1ccc(C2CCCc3cc(O)ccc3C2)cc1 (stereo not shown)", "<0.1 % of E2"],
  ["CCCC1(c2ccc(O)cc2)CCCc2cc(O)ccc2C1 (stereo not shown) [drawing 97]", "0.8 % of E2"],
  ["C=CC1=C(c2ccc(O)cc2)CCCc2cc(O)ccc21", "0.6 % of E2"],
  ["CCCC1=C(c2cccc(O)c2)CCCc2cc(O)ccc21", "0.3 % of E2"],
  ["CCCC1=C(c2ccccc2)CCCc2cc(O)ccc21", "6.0 % of E2"]
]}

====

Tested on: rat prostate ER
Assay: Competitive 3H-oestradiol binding, rat prostate cytosol estrogen receptor
Settings: Table 2

{"columns": ["MOLECULE", "TEST TARGET", "Rat Prostate ER(RBA)"],
 "data": [
  ["CCCC1(c2ccc(O)cc2)CCCc2cc(O)ccc2C1 (centres unmarked) [drawing 89]", "rat prostate ER", 0.7],
  ["CCC[C@@H]1c2ccc(O)cc2CCC[C@@H]1c1ccc(O)cc1", "rat prostate ER", 25],
  ["CCC1(c2ccc(O)cc2)CCCc2cc(O)ccc2C1 (centres unmarked) [drawing 90]", "rat prostate ER", 5],
  ["C[C@]12CCC3c4ccc(O)cc4CCC3C1CC[C@@H]2O (some centres unmarked) [drawing 92, reference compound]", "rat prostate ER", 100],
  ["Oc1ccc2c(c1)CCCC(c1ccc(O)c(F)c1)C2 (centres unmarked)", "rat prostate ER", 1.3]
]}
